Test: Pharmacokinetics of AS and DHA in rat plasma after single and multiple intravenous AS injections (automated blood sampler, LC-MS/MS);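 further: blood drawn through a jugular vein catheter by an automated sampling system, plasma drug levels measured by LC-MS/MS with positive electrospray ionization against standard curves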
Type: in vivo, Sprague-Dawley rats
Conditions: male, Sprague-Dawley, rat, plasma, iv, 20 mg/kg, WRAIR formulation (AS/0.3M PBS Buffer), 20 mg/kg i.v. daily for 3 days, male rats, Period 1, Day 1; read-out: t1/2 elimination (converted)
PARAMETER_MEASURED: half-life (min)

P. C[C@H]1[C@H](OC(=O)CCC(=O)O)O[C@@H]2O[C@@]3(C)CC[C@H]4[C@H](C)CC[C@@H]1[C@@]24OO3 [AS, artesunate]
Q. C[C@H]1[C@@H](O)O[C@@H]2O[C@@]3(C)CC[C@H]4[C@H](C)CC[C@@H]1[C@@]24OO3 [DHA, dihydroartemisinin]
Among P and Q , whose measured half-life is the smaller figure? Provide the label of your selected option as the answer.
P
